- system.name: T1, IGF1R-Fc (extracellular domain of human IGF1R aa 1-932 fused to hinge and constant regions of human IgG1) (human, UniProt P08069 31-932)
- T1 construct: range 1-932; made in house by transient transfection, purified on Protein A; also called IGF-IR-Fc; not shown: hinge and constant regions of human IgG1
- assay.remarks: SPR Biacore, IGF1R-Fc; against I1-GS10-E5 pegylated
Lab note: anything with Δka (fold) at or over 0.9 fold counts as Y; the rest go in N.

binder	classification
I1-GS10-E5 pegylated without the 6HIS tag (designed binder, PEG on the Cys of the C-terminal Cys tail, Whether the D-to-E change in the tail of the first monomer applies to this construct is not clear; also called I1-GS10-E5 pegylated(1)) MGVSDVPRDLEVVAATPTSLLISWSARLKVARYYRITYGETGGNSPVQEFTVPKNVYTATISGLKPGVDYTITVYAVTRFRDYQPISINYRTEIDKGSGSGSGSGSGSGSGSGSGSVSDVPRDLEVVAATPTSLLISWWAPVDRYQYYRITYGETGGNSPVQEFTVPRDVYTATISGLKPGVDYTITVYAVTDYKPHADGPHTYHESPISINYRTEIDKPCQ	Y
I1-GS10-E5(S62C) pegylated (designed binder, PEG on Cys at position 62 of E5 (position of SEQ ID NO: 1), also called I1-GS10-E5(S62C)(6)) MGVSDVPRDLEVVAATPTSLLISWSARLKVARYYRITYGETGGNSPVQEFTVPKNVYTATISGLKPGVDYTITVYAVTRFRDYQPISINYRTEIEKGSGSGSGSGSGSGSGSGSGSVSDVPRDLEVVAATPTSLLISWWAPVDRYQYYRITYGETGGNSPVQEFTVPRDVYTATICGLKPGVDYTITVYAVTDYKPHADGPHTYHESPISINYRTEHHHHHH	Y
I1-GSGCGS8-E5 pegylated (designed binder, PEG on the Cys of the GSGCGS8 linker, alternative clone of I1-GS10-E5 pegylated; tail of first monomer EIEK (D to E); also called I1-GSGCGS8-E5(3)) MGVSDVPRDLEVVAATPTSLLISWSARLKVARYYRITYGETGGNSPVQEFTVPKNVYTATISGLKPGVDYTITVYAVTRFRDYQPISINYRTEIEKGSGCGSGSGSGSGSGSGSGSVSDVPRDLEVVAATPTSLLISWWAPVDRYQYYRITYGETGGNSPVQEFTVPRDVYTATISGLKPGVDYTITVYAVTDYKPHADGPHTYHESPISINYRTEHHHHHH	N
I1(S62C)-GS10-E5 pegylated (designed binder, PEG on Cys at position 62 of I1 (position of SEQ ID NO: 1), also called I1(S62C)-GS10-E5(5)) MGVSDVPRDLEVVAATPTSLLISWSARLKVARYYRITYGETGGNSPVQEFTVPKNVYTATICGLKPGVDYTITVYAVTRFRDYQPISINYRTEIEKGSGSGSGSGSGSGSGSGSGSVSDVPRDLEVVAATPTSLLISWWAPVDRYQYYRITYGETGGNSPVQEFTVPRDVYTATISGLKPGVDYTITVYAVTDYKPHADGPHTYHESPISINYRTEHHHHHH	N
I1(S91C)-GS10-E5 pegylated (designed binder, PEG on Cys at position 91 of I1 (position of SEQ ID NO: 1), also called I1(S91C)-GS10-E5(7)) MGVSDVPRDLEVVAATPTSLLISWSARLKVARYYRITYGETGGNSPVQEFTVPKNVYTATISGLKPGVDYTITVYAVTRFRDYQPICINYRTEIEKGSGSGSGSGSGSGSGSGSGSVSDVPRDLEVVAATPTSLLISWWAPVDRYQYYRITYGETGGNSPVQEFTVPRDVYTATISGLKPGVDYTITVYAVTDYKPHADGPHTYHESPISINYRTEHHHHHH	N
I1-GS10-E5-GSGC pegylated (designed binder, PEG on the Cys of the GSGC tail of E5, alternative clone of I1-GS10-E5 pegylated; also called I1-GS10-E5-GSGC(4)) MGVSDVPRDLEVVAATPTSLLISWSARLKVARYYRITYGETGGNSPVQEFTVPKNVYTATISGLKPGVDYTITVYAVTRFRDYQPISINYRTEIEKGSGSGSGSGSGSGSGSGSGSVSDVPRDLEVVAATPTSLLISWWAPVDRYQYYRITYGETGGNSPVQEFTVPRDVYTATISGLKPGVDYTITVYAVTDYKPHADGPHTYHESPISINYRTEGSGCHHHHHH	Y
